Biological target: Angiotensin-I converting enzyme (ACE) (from rabbit lungs) (Oryctolagus cuniculus)
Construct: Angiotensin-I converting enzyme (ACE) (from rabbit lungs); purchased Sigma-Aldrich Co. (St. Louis, MO, United States); host or cells: rabbit lung tissue
Sequence (P12822 34-1310): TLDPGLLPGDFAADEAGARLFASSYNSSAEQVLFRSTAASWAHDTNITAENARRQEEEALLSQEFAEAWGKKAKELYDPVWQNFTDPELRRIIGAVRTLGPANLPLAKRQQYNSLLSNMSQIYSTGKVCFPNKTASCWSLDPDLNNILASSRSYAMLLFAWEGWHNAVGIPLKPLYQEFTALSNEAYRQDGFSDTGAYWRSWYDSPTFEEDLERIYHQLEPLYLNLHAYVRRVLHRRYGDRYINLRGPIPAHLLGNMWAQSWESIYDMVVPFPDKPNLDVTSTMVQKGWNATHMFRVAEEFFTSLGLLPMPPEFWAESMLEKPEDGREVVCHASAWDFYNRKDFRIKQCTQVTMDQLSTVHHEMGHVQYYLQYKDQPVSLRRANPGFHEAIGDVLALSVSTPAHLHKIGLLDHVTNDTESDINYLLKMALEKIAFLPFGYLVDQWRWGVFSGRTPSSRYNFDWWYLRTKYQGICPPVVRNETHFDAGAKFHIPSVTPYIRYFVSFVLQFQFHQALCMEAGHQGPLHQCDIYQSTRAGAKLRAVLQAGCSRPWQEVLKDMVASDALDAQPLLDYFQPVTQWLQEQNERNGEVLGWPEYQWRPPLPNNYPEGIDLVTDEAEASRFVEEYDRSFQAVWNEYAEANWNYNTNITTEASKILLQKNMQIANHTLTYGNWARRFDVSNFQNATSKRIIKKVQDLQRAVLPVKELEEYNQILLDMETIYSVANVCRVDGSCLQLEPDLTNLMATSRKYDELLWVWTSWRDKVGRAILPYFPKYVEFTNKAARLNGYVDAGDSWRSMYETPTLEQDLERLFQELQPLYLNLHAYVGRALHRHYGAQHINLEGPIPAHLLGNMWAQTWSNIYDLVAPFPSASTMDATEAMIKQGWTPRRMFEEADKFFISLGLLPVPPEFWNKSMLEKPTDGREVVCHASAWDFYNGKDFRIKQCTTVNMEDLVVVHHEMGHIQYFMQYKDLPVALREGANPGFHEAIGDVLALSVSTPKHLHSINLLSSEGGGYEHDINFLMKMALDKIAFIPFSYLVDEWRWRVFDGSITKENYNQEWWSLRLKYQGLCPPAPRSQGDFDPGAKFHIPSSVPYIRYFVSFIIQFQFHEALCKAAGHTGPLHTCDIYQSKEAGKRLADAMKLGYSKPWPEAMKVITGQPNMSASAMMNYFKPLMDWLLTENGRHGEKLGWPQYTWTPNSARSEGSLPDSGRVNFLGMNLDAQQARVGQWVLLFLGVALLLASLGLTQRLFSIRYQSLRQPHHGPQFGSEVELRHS
Test: ACE-inhibitory activity assay (HHL substrate, HPLC of hippuric acid)
Type: biochemical
Conditions: peptide 1 mg/mL; HHL 5 mM, ACE 0.1 U/mL, 37°C, 5 min pre-incubation, 60 min; HPLC of hippuric acid; triplicate
The reader will find reported ACE inhibition rate (%) Concentration (1 mg/mL) values listed item by item below.
VALUE_KIND: ACE inhibition rate (%) Concentration (1 mg/mL)

{"columns": ["SUBSTANCE", "TEST_SYSTEM", "RECORDED_VALUE"],
 "data": [
  ["LDVSWASD", "Angiotensin-I converting enzyme (ACE) (from rabbit lungs) (Oryctolagus cuniculus)", "3.6918%"],
  ["VILGDADLP", "Angiotensin-I converting enzyme (ACE) (from rabbit lungs) (Oryctolagus cuniculus)", "1.6051%"]
]}
